TARGET_OR_SYSTEM: T1, P546_AMBCA (Amblyomma cajennense, UniProt A0A023FBW7 22-118)
T1 construct: Tick evasin; also called Evasin
T1 sequence: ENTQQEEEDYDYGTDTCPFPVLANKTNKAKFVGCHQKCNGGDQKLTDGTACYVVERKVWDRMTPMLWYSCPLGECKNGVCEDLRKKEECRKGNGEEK
PROTOCOL: microscale thermophoresis, AlexaFluor 647 labelled chemokine
Quick reference: Kd of the listed items.
Response body: numeric value in nM, unit text excluded.

# count of solved cases: 4
BINDER	Kd / nM
CCL1_HUMAN (ligand, Biotinylated (detected with streptavidin-Alexa647) in yeast display; AlexaFluor 647 labelled (Almac) in thermophoresis) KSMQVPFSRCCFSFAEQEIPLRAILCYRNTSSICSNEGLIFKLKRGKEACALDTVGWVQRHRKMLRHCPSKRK	149
CCL8_HUMAN (ligand, Biotinylated (detected with streptavidin-Alexa647) in yeast display; AlexaFluor 647 labelled (Almac) in thermophoresis) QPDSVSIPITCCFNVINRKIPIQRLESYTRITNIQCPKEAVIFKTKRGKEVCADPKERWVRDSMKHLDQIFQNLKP	80
CCL18_HUMAN (ligand, Biotinylated (detected with streptavidin-Alexa647) in yeast display; AlexaFluor 647 labelled (Almac) in thermophoresis) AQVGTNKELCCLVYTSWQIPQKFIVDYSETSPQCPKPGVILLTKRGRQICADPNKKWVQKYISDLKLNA	86
CCL22_HUMAN (ligand, Biotinylated (detected with streptavidin-Alexa647) in yeast display; AlexaFluor 647 labelled (Almac) in thermophoresis) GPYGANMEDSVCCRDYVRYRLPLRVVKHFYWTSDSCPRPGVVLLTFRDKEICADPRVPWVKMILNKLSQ	175

Please find the next binder below.
Q) What value of Kd has been recorded for this entry: CCL3_HUMAN (ligand, Biotinylated (detected with streptavidin-Alexa647) in yeast display; AlexaFluor 647 labelled (Almac) in thermophoresis) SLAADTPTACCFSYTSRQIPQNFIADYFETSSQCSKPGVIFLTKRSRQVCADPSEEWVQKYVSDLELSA
A) 171
